- test: DRUGMATRIX: Phosphodiesterase PDE4 enzyme inhibition (substrate: [3H]cAMP + cAMP)
- condition-label: u-937; Not Active = under 50% inhibition at 10 µM; read-out: IC50
readout-name: pIC50
Quick note: pIC50 means taking -log10 of the concentration in moles per liter.

Recorded results for 2 compounds are shown here.
*Q* Consider the compound shown here: CCc1oc2ccccc2c1C(=O)c1cc(Br)c(O)c(Br)c1 [BENZBROMARONE] What is its recorded pIC50?
*A* 5.98

*Q* Quick one: Nc1nc(Cl)nc2c1ncn2[C@H]1C[C@H](O)[C@@H](CO)O1 [CLADRIBINE]
*A* 5.44

Please find the next compound below.
*Q* Consider the compound shown here: COc1ccc(Cc2nccc3cc(OC)c(OC)cc23)cc1OC [PAPAVERINE] What is its recorded pIC50?
*A* 6.09
